- measurement.protocol: Quantitative High-Throughput drug screen in 47 multiple myeloma cell lines against the NCATS MIPE library collection: Karpas620_DSMZ cell viability assay (AID 1918959); further: nearly all actives have a fitted effect of over 30% in size
- condition.details: Karpas620 myeloma viability, CellTiter-Glo ATP luminescence, 48 h; series mostly up to 45.8 µM
Records with an inconclusive call do not appear. Calls of active or inactive are those of the source. The call rests on the fitted dose curve; in most records, active means well fitted cell-killing curve with a large enough effect; inconclusive means small, poorly fitted or top-dose-only effect, or effect the other way; inactive means no such curve, though single readings can be large or run the other way.
I would appreciate it if you answered using one of these outcomes: True for active, False for inactive

Below are worked cases with known answers.
[[record]]
compound = "C#CCN(C)[C@H](C)Cc1ccccc1"
category_label = "False"

[[record]]
compound = "N[C@@H](Cc1ccc(N(CCCl)CCCl)cc1)C(=O)O"
category_label = "True"

[[record]]
compound = "NCC1(CC(=O)O)CCCCC1"
category_label = "False"

[[record]]
compound = "COC[C@@H](NC(C)=O)C(=O)NCc1ccccc1"
category_label = "False"

[[record]]
compound = "Cc1cccc(C)c1NC(=O)CN1CCCC1=O"
category_label = "False"


Query: How was "CN(C)CCc1ccc(O)cc1" classified in this test?
Response: False

Query: Write down the call the test reported for this compound. Item: CC(O)(CS(=O)(=O)c1ccc(F)cc1)C(=O)Nc1ccc(C#N)c(C(F)(F)F)c1 (configuration not stated)
Response: True

Values were extracted from PubChem BioAssay (NCATS).
